Target: hGIPR (Homo sapiens, UniProt P48546)
Sequence (P48546 22-466): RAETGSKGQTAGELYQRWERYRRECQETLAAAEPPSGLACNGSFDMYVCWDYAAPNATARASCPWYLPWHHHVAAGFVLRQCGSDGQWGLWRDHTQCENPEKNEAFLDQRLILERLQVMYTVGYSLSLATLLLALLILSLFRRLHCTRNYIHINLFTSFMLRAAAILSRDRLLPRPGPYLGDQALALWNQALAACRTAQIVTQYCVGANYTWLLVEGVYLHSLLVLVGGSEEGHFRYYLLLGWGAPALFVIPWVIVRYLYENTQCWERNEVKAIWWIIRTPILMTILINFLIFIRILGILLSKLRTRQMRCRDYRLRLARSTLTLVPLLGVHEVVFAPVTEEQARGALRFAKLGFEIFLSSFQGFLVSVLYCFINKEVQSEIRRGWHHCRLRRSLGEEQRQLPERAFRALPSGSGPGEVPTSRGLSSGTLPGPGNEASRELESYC
Test: Functional cAMP activity in the presence of 1% HSA
Assay type: cell-based
Details: read-out: cAMP Rel EC50, hGIPR
Starred links: 1 amine or outer side, 2 acyl side, 3 side chain; linkers in the order of their positions; H or OH if unused. Non-standard residues stand in square brackets, D forms with d. Groups on a side chain read outwards from the residue. *: point of attachment. C18 diacid = O=C(O)CCCCCCCCCCCCCCCCC(=O)*; αMePhe(2-F) = C[C@](N)(Cc1ccccc1F)C(=O)O; γGlu = O=C(O)[C@H](CCC(=O)[*:2])N[*:1]; αMe4Pal = C[C@](N)(Cc1ccncc1)C(=O)O; αMeY = C[C@](N)(Cc1ccc(O)cc1)C(=O)O; 4Pal = N[C@@H](Cc1ccncc1)C(=O)O; αMeL = CC(C)C[C@](C)(N)C(=O)O; αMeS = C[C@](N)(CO)C(=O)O; Orn = NCCC[C@H](N)C(=O)O; Aib = CC(C)(N)C(=O)O
So I've got a bunch of substances here, and I need their EC50 values.
Give the number; nM is assumed, so skip it.

Ask: Need EC50, item H-Y[Aib]QGTFTSD[4Pal]SQ[αMeL]LDKK([γGlu-γGlu-C18 diacid])AQ[αMe4Pal]AFIEWLIEGGPSSGAPPPSGS-NH2 [Example 872]
Reply: 30.1

Ask: Likewise for H-Y[Aib]QGTFTSD[4Pal][αMeS]I[αMeL]LD[Orn]K([dE-γGlu-C18 diacid])AQ[αMe4Pal]QFIQ[αMeY]LIE[Aib]GPSSGAPPPSGGGE-NH2 [Example 1136] ?
Reply: 0.949

Ask: Likewise for H-Y[Aib]QGT[αMePhe(2-F)]TSD[4Pal][αMeS]I[αMeL]LD[Orn]K([γGlu-γGlu-C18 diacid])AQ[Aib]NFI[dE][αMeY]LQEGGPSSGEPPPEGTGE-NH2 [Example 527] ?
Reply: 2.6

Entry source: patent US20240270821A1
